Molecular target: Disintegrin and metalloproteinase domain-containing protein 17 (Homo sapiens, UniProt P78536)
Sequence (P78536 whole entry, the tested form may be a part): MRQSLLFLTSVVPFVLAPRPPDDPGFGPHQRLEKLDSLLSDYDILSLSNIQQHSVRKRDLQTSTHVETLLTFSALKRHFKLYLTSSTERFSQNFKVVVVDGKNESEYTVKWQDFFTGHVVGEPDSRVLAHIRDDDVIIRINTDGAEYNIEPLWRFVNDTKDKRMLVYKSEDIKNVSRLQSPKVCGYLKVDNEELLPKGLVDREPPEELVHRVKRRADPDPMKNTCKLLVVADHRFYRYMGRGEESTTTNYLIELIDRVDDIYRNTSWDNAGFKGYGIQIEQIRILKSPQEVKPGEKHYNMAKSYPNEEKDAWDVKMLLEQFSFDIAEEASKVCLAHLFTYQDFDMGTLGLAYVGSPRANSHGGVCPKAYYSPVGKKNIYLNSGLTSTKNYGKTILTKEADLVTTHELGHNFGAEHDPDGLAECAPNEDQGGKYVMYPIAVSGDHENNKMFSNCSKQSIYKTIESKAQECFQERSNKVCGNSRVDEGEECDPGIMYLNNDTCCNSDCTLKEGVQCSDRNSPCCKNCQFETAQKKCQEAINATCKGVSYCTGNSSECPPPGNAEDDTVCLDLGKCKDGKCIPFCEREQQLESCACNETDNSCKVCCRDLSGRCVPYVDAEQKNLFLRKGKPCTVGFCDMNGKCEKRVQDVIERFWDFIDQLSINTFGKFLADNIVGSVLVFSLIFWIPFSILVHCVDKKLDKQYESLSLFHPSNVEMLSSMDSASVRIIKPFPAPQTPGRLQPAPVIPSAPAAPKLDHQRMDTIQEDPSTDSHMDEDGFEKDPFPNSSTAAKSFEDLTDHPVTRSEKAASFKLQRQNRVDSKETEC
Test: Ability to suppress the formation of TNF-aplha in human peripheral blood mononuclear cell assay(PBMC)
Assay type: functional
pIC50: −log10 of the molar value.
Measured pIC50 by item
OUTCOME_MEASURE: pIC50

• Cc1cc(COc2ccc3c(c2)NCCN([C@H](C)C(=O)NO)S3(=O)=O)cc(C)n1 = 5.54
• COc1cc(COc2ccc3c(c2)NCCN([C@@H](C(=O)NO)C(C)C)S3(=O)=O)cc(OC)c1 = 5.40
• COc1cc(COc2ccc3c(c2)NCCN([C@H](CCCCNS(C)(=O)=O)C(=O)NO)S3(=O)=O)cc(OC)c1 = 5.72
• COC(=O)CCC[C@H](C(=O)NO)N1CCNc2cc(OCc3cc(OC)cc(OC)c3)ccc2S1(=O)=O = 6.05

// data source = ChEMBL document CHEMBL1145029
